# tested-target: hepatic lipase (HL) (Homo sapiens, UniProt P11150)
# Construct: made in house; host or cells: COS cells (conditioned medium, partially purified)
# Sequence (P11150 23-499, species assumed): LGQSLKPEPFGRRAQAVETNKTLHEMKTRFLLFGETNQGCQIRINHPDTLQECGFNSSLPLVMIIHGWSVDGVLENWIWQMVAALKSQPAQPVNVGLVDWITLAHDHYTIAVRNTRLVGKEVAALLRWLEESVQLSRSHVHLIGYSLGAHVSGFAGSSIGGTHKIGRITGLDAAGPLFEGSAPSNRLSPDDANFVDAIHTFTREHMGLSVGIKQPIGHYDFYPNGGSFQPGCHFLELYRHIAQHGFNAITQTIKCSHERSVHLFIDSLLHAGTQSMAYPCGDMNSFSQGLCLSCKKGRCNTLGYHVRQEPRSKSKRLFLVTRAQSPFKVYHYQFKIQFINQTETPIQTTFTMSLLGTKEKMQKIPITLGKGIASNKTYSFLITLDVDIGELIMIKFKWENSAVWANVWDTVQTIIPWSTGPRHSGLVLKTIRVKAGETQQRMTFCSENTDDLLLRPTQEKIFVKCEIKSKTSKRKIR
# test-name: Hepatic lipase (HL) enzymatic assay, fluorescent substrate A10070 in DMPG vesicles
# Type: biochemical
# particulars: HL partially purified from conditioned media of COS cells; compound preincubated 30 min at 37° C; read-out: HL IC50
Exercise: for every item that follows, state its recorded pIC50.
Give bare numbers, as −log10 of the molar value.

1) CC1(Cc2nnc(C(c3nc4ccc(-c5cccc(C(=O)N6CC(F)C6)c5)cc4s3)S(C)(=O)=O)o2)NC(=O)NC1=O (centres unmarked): 6.90

Batch request: pIC50 per item, same order as input.
1. COC1(C)CN(C(=O)c2cccc(-c3ccc4nc(C(c5nnc(CC6(C)NC(=O)NC6=O)o5)S(C)(=O)=O)sc4c3)c2)C1 (centres unmarked)
2. NS(=O)(=O)NCc1nnc(C(c2nc3ccc(-c4cncnc4)cc3s2)S(=O)(=O)Cc2ccccc2)o1 (centres unmarked)
3. CC1(O)CN(C(=O)c2cccc(-c3ccc4nc(C(c5nnc(CNS(N)(=O)=O)o5)S(=O)(=O)CCC(F)(F)F)sc4c3)c2)C1 (centres unmarked)
4. COc1cc(-c2ccc3nc(C(c4nnc(CNS(N)(=O)=O)o4)S(C)(=O)=O)sc3c2)ccn1 (centres unmarked)

1: 6.79; 2: 6.99; 3: 7.09; 4: 6.99

Hello, the source for this data is patent US20140011799A1, in case you need it.
